System: HOP-92 NSCLC
Experiment: NCI-60 one-dose screen, 48 h
Conditions: 10 µM unless noted
Protocol: Growth inhibition of the HOP-92 human Non-Small Cell Lung tumor cell line is measured as a screen for anti-cancer activity. Cells are grown in 96 well plates and exposed to the test compound for 48 hours. Compounds are tested at a single concentration, which is 10^-5 M for most compounds. The reported endpoint is percent growth (GI% or GIPRCNT), where numbers from 0 - 100% represent growth inhibition, and numbers from -100% - 0 represent cell death. […]
The panel holds about 83,000 compounds, 20% with a hit somewhere; the sample as a whole holds those more often. Calls of active or inactive are those of the source. Rule for the calls: active = growth percent below 10; inactive = the rest.
Parameter call: string, one of true = active, false = inactive

Molecule: Cc1nc2ccccc2n1CC1C(=O)NC(=O)NC1=O
Tgt: HOP-92 NSCLC
Label Class: false
--
Molecule: Cc1nc2cnc(N)c(C#Cc3cncc(C(=O)Nc4ccc(CN5CCN(C)CC5)c(C(F)(F)F)c4)c3)c2nc1C
Tgt: HOP-92 NSCLC
Label Class: true
--
Molecule: COc1ccc(S(=O)(=O)n2cc(C3OC(c4cc(OC)c(OC)c(OC)c4)=NN3C(C)=O)c3ccccc32)cc1OC (configuration not stated)
Tgt: HOP-92 NSCLC
Label Class: false
--
Molecule: CCCCN(C)N=Nc1ccc(C(N)=O)cc1
Tgt: HOP-92 NSCLC
Label Class: false
--
Molecule: Nc1ccccc1-c1cc2c(c3c1[nH]c1ccccc13)CCCCC2
Tgt: HOP-92 NSCLC
Label Class: false
--
Molecule: Cc1cccc2c(=O)c3c(sc12)c(NCc1ccccc1)nc1ccccc13
Tgt: HOP-92 NSCLC
Label Class: false
--
Molecule: O=c1ccn(Cc2cn(-c3c4ccccc4nc4ccccc34)nn2)c(=O)[nH]1
Tgt: HOP-92 NSCLC
Label Class: false
--
Molecule: Cc1cc(-c2cc(C)c(N)cc2C)c(C)cc1N
Tgt: HOP-92 NSCLC
Label Class: false
--
Molecule: CCCCC[C@H](O)C/C=C1/C(=O)C=C[C@@H]1C/C=C\CCCC(=O)OC
Tgt: HOP-92 NSCLC
Label Class: false
--
Molecule: Fc1cc(-c2nnc3sc(-c4ccc(Cl)cc4Cl)nn23)c(Cl)cc1Cl
Tgt: HOP-92 NSCLC
Label Class: false

Query: Record request — test call for `CCN(CC)Cc1cc(Nc2c3ccc(Cl)cc3nc3ccc(OC)cc23)ccc1O`
Result: false

Query: Record request — test call for `O=C(Nc1c2ccccc2nc2ccccc12)c1ccccc1CN1C(=O)c2ccccc2C1=O`
Result: false

Query: Record request — test call for O=C1CSC(c2c(Cl)cccc2Cl)N1c1nc(Cl)cc(=O)[nH]1 (configuration not stated)
Result: false

Query: Record request — test call for `COc1ccc(-c2nc(NCCO)[nH]c(=O)c2C#N)cc1`
Result: false

Query: Record request — test call for `Cc1cccc2c1S/C(=C/c1ccc([N+](=O)[O-])cc1)C2=O`
Result: false

Query: Record request — test call for `Cc1nn(-c2ccccc2)c2c1N=c1s/c(=C\c3ccc(C(F)(F)F)cc3)c(=O)n1CN2`
Result: false

Query: Record request — test call for `CSc1ccc2c(c1)c(CCN)c(C)n2Cc1ccc(Cl)c(Cl)c1`
Result: true

Query: Record request — test call for `COc1cc(Nc2nc(NCCN)nc3cc[nH]c(=O)c23)cc(OC)c1`
Result: false

Query: Record request — test call for `N#Cc1ccc(NC(=O)c2sc3nc4c(cc3c2N)C(=O)CCC4)cc1`
Result: false

Query: Record request — test call for CCN1C(=O)N(CC)C2Nn3c(s/c(=C\c4ccc([N+](=O)[O-])cc4)c3=O)=NC21 (configuration not stated)
Result: false

Query: Record request — test call for `Cc1cccc(NCc2cn(-c3ccc(C(=O)O)cc3)nc2-c2ccc(C(=O)O)cc2)n1`
Result: false

Query: Record request — test call for `C/C(=N/NC(N)=S)c1sc(Nc2cccc(Cl)c2)nc1C`
Result: false

###

system: HT29 colon; assay: NCI-60 one-dose screen, 48 h (100 = growth as untreated, 0 = no growth, -100 = all killed); conditions: 10 µM unless noted
The panel holds about 83,000 compounds, 20% with a hit somewhere; the sample as a whole holds those more often.
Value Kind: growth (%)
Numbers only, in %.

Compound: COc1ccc(CNC(=O)[C@H](O)[C@@H](N)Cc2ccccc2)cc1
Tgt: HT29 colon
growth / %: 103
--
Compound: COc1c(C2CC(=O)Nc3c2c(C)nn3-c2nc3ccccc3[nH]2)cc2c(c1OC)OCO2 (stereo not given)
Tgt: HT29 colon
growth / %: 20.5
--
Compound: O=C(Nc1ccc(F)cc1F)c1cc(F)ccc1O
Tgt: HT29 colon
growth / %: 93.4
--
Compound: O=C(CCc1nnc(-c2c(Cl)cccc2Cl)o1)c1nc2ccccc2[nH]1
Tgt: HT29 colon
growth / %: 9.39
--
Compound: Cc1ccc(S(=O)(=O)Oc2ccc(NC(=O)c3ccc(Cl)cc3)cc2)cc1
Tgt: HT29 colon
growth / %: 94.9
--
Compound: COc1cc(CCCO)c(OC)c(OC)c1OC
Tgt: HT29 colon
growth / %: 108

Please give growth for each item listed below.
1. COc1ccc(CN2c3ccccc3CCc3ccccc32)cc1F
2. O=c1cc(SCc2ccccc2)nc[nH]1
3. Cc1nc2ccccc2c(/C=C/c2ccc(Cl)cc2)c1C(=O)/C=C/c1cccs1
4. CC(=O)OC[C@H]1OC(Sc2sc(C(=O)c3ccc(Br)cc3)c(N)c2-c2nc3ccccc3s2)[C@H](OC(C)=O)[C@@H](OC(C)=O)[C@H]1OC(C)=O (stereo not given in full)

Result:
1. 1.59
2. 109
3. 52.8
4. 106

###

tested on: SF-268 CNS; assay: NCI-60 one-dose screen, 48 h (100 = growth as untreated, 0 = no growth, -100 = all killed); settings: 10 µM unless noted
About 83,000 compounds went through this panel and 20% of them were active in at least one assay; those are over-represented in the sample as a whole.
For each entry below, report its growth value.
Answers are plain numbers, in %.

Please give growth for each item listed below.
1. Cc1ccc(-c2nc(SCC(=O)Nc3nc(-c4ccc(Cl)cc4)cs3)[nH]c(=O)c2C#N)cc1
2. CCOC(=O)/C=C1\S/C(=N\Nc2ccc([N+](=O)[O-])cc2[N+](=O)[O-])N(Cc2ccccc2)C1=O
3. Cc1nn(-c2ccccc2)c(-n2ccnc2)c1/C=N/Nc1nc(-c2ccc(F)cc2)cs1
4. Cc1cc(C)c(-c2c(N)cc(Br)cc2Br)c(N)c1
5. COc1ccc2c(c1)nc(NNC(=O)c1cnccn1)c1cccn12

Result:
[98.1, 89.7, 76.9, 76.1, 30.4]

Please give growth for each item listed below.
1. CCOc1cccc(NC2=C(Br)C(=O)C(C)=C(C)C2=O)c1
2. COc1ccc([C@H]2c3cc(OC)c(OC)cc3C=C(C=O)C2CO)cc1OC (stereo partly drawn)
3. COc1cccc2c(=O)c3c(sc12)c(NCCCN)nc1ccccc13

Result:
[94.1, 60.5, 61.4]

###

test system: UACC-62 melanoma; assay: NCI-60 one-dose screen, 48 h (100 = growth as untreated, 0 = no growth, -100 = all killed); details: 10 µM unless noted
The panel holds about 83,000 compounds, 20% with a hit somewhere; the sample as a whole holds those more often. Calls of active or inactive are those of the source. How the source made its calls: active means growth percent below 10; inactive means the rest.
Value Kind: growth

Compound: COc1ccn2c(C(C)=O)cc(C(=O)c3ccc4c(c3)Sc3ccccc3N4)c2c1
Tgt: UACC-62 melanoma
growth: 35.9% (inactive)

Please give growth for each item listed below.
1. OC(COc1ccccc1)CN1CCN(c2ccc(Cl)cc2)CC1 (centres undefined)
2. Oc1ccc(C#CCOc2ccccc2)cc1CNCCN(Cc1ccccn1)Cc1ccccn1

Result:
90.3% (inactive)
9.83% (active)

Please give growth for each item listed below.
1. CN1C(=O)CNC(=O)[C@H](NC(=O)c2nc3ccccc3cc2O)CSSC[C@H]1C(=O)NCCc1nc2ccccc2cc1O
2. O=C(Nc1ccc(F)cc1F)c1cc(F)ccc1O
3. O=CN1N=C(c2ccc(Nc3ccnc4cc(Cl)ccc34)cc2)CC1c1ccccc1 (centres undefined)
4. O=C(CCc1nnc(-c2c(Cl)cccc2Cl)o1)c1nc2ccccc2[nH]1
5. COc1cc2cc(Oc3ccc(NC(=O)Nc4ccc(Cl)c(Cl)c4)cc3)c(C)nc2cc1OCCN1CCOCC1

Result:
1: 34.9% (inactive); 2: -0.318% (active); 3: 38.4% (inactive); 4: 42.3% (inactive); 5: 77.8% (inactive)

Please give growth for each item listed below.
1. COc1cc(C2CC(c3ccc(N(C)C)cc3)=NN2C(C)=O)cc(OC)c1OC (centres undefined)
2. CCOC(=O)/C(C#N)=C\Nc1ccc2ncnc(Nc3ccc(Cl)cc3Cl)c2c1
3. O=c1c2cccc(Cl)c2sc2c(NCCCNCCO)nc3ccccc3c12

Result:
1. 26.9% (inactive)
2. 90% (inactive)
3. 66.2% (inactive)

Please give growth for each item listed below.
1. NS(=O)(=O)c1ccc(-n2nc(-c3ccc(Cl)cc3)c3ccccc3c2=O)cc1
2. Fc1cc2c(cc1Cl)N(c1ncnc3ccc(-c4cnc5cnccn45)cc13)CC2
3. O=c1c2cc(C(F)(F)F)ccc2sc2c(NCCCNCCO)nc3ccccc3c12
4. COc1cccc2c(=O)c3c(sc12)c(N1CCNCC1)nc1ccccc13
5. CCOC(=O)c1c2c(n(-c3ccc(C#N)cc3)c1-c1ccccc1)C=CCC2
6. CCOC(=O)Cn1c(C)c(/C=N/NC(=O)c2cc3c(ccc4ccccc43)o2)c2ccccc21
7. O=C(CCN1C(=O)/C(=C/c2ccc(O)cc2)SC1=S)Nc1ccc(Cl)cc1
8. COc1ccc(/C=C/c2c(C(=O)/C=C/c3ccc(C(F)(F)F)cc3)c(C)nc3ccccc23)cc1

Result:
1: 89.2% (inactive); 2: 80.5% (inactive); 3: 74.8% (inactive); 4: 105% (inactive); 5: 75% (inactive); 6: 35.4% (inactive); 7: 83.3% (inactive); 8: -29% (active)
